experiment: Light transmittance at 400 nm of s-BPDA powder, 10 mass % in 2 N aqueous sodium hydroxide; type: physicochemical; conditions: light path 1 cm
measure_name: light transmittance of obtained s-BPDA powder at 400 nm (%)
Answers are plain numbers, in %.

O=C1OC(=O)c2cc(-c3ccc4c(c3)C(=O)OC4=O)ccc21 [Example D4] | 78
O=C1OC(=O)c2cc(-c3ccc4c(c3)C(=O)OC4=O)ccc21 [Comparative Example D2, reference compound] | 75

Now consider the entry below.
Given item O=C1OC(=O)c2cc(-c3ccc4c(c3)C(=O)OC4=O)ccc21 [Comparative Example D3, reference compound] , the value recorded as its light transmittance of obtained s-BPDA powder at 400 nm is 75

* * *

Can you tell me Solubility at 25° C. for the items I'm about to list?
assay: Solubility of i-BPDA at 25° C. in solvent; assay type: physicochemical; conditions: i-BPDA in the solvent used in the example
Answers are plain numbers, in g/100 g.

O=C1OC(=O)c2c1cccc2-c1cccc2c1C(=O)OC2=O [Example F2] | 4.4
O=C1OC(=O)c2c1cccc2-c1cccc2c1C(=O)OC2=O [Example F3] | 6.8

Given item O=C1OC(=O)c2c1cccc2-c1cccc2c1C(=O)OC2=O [Example F1] , the value recorded as its Solubility at 25° C. is 3.2

* * *

assay: Light transmittance at 400 nm of a-BPDA powder, 10 mass % in 2 N aqueous sodium hydroxide; format: physicochemical; settings: light path 1 cm
For each record, check the reported light transmittance at 400 nm (a-BPDA powder): if it is below 90% write true, else write false.

Solved cases (3 shown):
O=C1OC(=O)c2cc(-c3cccc4c3C(=O)OC4=O)ccc21 [Example C3] | false
O=C1OC(=O)c2cc(-c3cccc4c3C(=O)OC4=O)ccc21 [Comparative Example C1, reference compound] | true
O=C1OC(=O)c2cc(-c3cccc4c3C(=O)OC4=O)ccc21 [Example C2] | false

Could you please tell me whether light transmittance at 400 nm (a-BPDA powder) recorded for O=C1OC(=O)c2cc(-c3cccc4c3C(=O)OC4=O)ccc21 [Comparative Example C4, reference compound] is less than 90%?
true

Could you please tell me whether light transmittance at 400 nm (a-BPDA powder) recorded for O=C1OC(=O)c2cc(-c3cccc4c3C(=O)OC4=O)ccc21 [Comparative Example C2, reference compound] is less than 90%?
true

Could you please tell me whether light transmittance at 400 nm (a-BPDA powder) recorded for O=C1OC(=O)c2cc(-c3cccc4c3C(=O)OC4=O)ccc21 [Example C1] is less than 90%?
false
